assay_comment: in vitro
measurement_parameters: human
property_name: CC50 at 48.5 h

What CC50 at 48.5 h value was documented for this compound, N#C[C@@]1(c2ccc3c(N)ncnn23)O[C@H](CO)[C@@H](O)[C@H]1O [RVn, reference compound] ?
> 100 µM

* * *

Assignment: determine reported CC50 for the given compounds.
Test system: Calu-3 cells
assay_comment: Cytotoxicity in Calu-3 cells, nuclei count or CellTiter-Glo (Example 6)
measurement_parameters: for select compounds up to 100 μM by CellTiter-Glo

CCCCCCCCCCCCCCCCCCCCOP(=O)(O)OC[C@H]1O[C@](C#N)(c2ccc3c(N)ncnn23)[C@H](O)[C@@H]1O [Compound 4a, Eicosyl-phospho-RVn] :: > 20 µM

Hi team, please reply with CC50 for each item in this list.
1. CCCCCCCCCCCCCCCCCCOCC(COP(=O)(O)OC[C@H]1O[C@@](C#N)(c2ccc3c(N)ncnn23)[C@H](O)[C@@H]1O)OCc1ccccc1 (mixture of isomers) [Compound 15e]
2. CCCCCCCCCCCCCCCCCCOC[C@H](COP(=O)(O)OC[C@H]1O[C@@](C#N)(c2ccc3c(N)ncnn23)[C@H](O)[C@@H]1O)OCCCCCCCC [Compound 15f]
3. CCCCCCCCCCCCCCCCCCOC[C@H](COP(=O)(OCc1ccccc1)OC[C@H]1O[C@@](C#N)(c2ccc3c(N)ncnn23)[C@H](O)[C@@H]1O)OCc1ccccc1 (some centres unmarked) [Compound 17]

1. > 20 µM
2. > 20 µM
3. > 20 µM

What CC50 value was documented for this compound, CCCCCCCCCCCCCCCCOC[C@H](COP(=O)(O)OC[C@H]1O[C@@](C#N)(c2ccc3c(N)ncnn23)[C@H](O)[C@@H]1O)OCc1ccc(OC)c(F)c1 [Compound 15c] ?
75.6 µM

* * *

Test system: PSC-human lung cells
assay_comment: Cell viability assay CellTiter-Glo, PSC-human lung cells (Example 7)
property_name: CC50 (µM)
Answers are plain numbers, in µM.

What CC50 value was documented for this molecule, CCCCCCCCCCCCCCCCCCOC[C@H](COP(=O)(O)OC[C@H]1O[C@@](C#N)(c2ccc3c(N)ncnn23)[C@H](O)[C@@H]1O)OCc1ccccc1 [Compound 15d] ?
61.5

* * *

Test system: Huh7.5 cells
assay_comment: Cytotoxicity in Huh7.5 cells, nuclei count (Example 6)
Assay type: cell-based, human
Assignment: determine reported CC50 for the given compounds.

Recorded results for 2 compounds are shown here.
CCCCCCCCCCCCCCCCCCOC[C@H](COP(=O)(O)OC[C@H]1O[C@@](C#N)(c2ccc3c(N)ncnn23)[C@H](O)[C@@H]1O)OCc1ccccc1 [Compound 15d] :: > 20 µM
CCCCCCCCCCCCCCCCCCOCCOP(=O)(O)OC[C@H]1O[C@@](C#N)(c2ccc3c(N)ncnn23)[C@H](O)[C@@H]1O [Compound 4c, 2-(Octadecyloxy)ethyl-phospho-RVn] :: > 20 µM

Please look at the following compound next.
What CC50 value was documented for this compound, CCCCCCCCCCCCCCCCOCCCOP(=O)(O)OC[C@H]1O[C@@](C#N)(c2ccc3c(N)ncnn23)[C@H](O)[C@@H]1O [Compound 4b, 3-(Hexadecyloxy)propyl-phospho-RVn] ?
> 20 µM

* * *

Tested on: Huh7.5 cells
assay_comment: Cell viability assay CellTiter-Glo, Huh7.5 cells (Example 7)
Assignment: determine reported CC50 for the given compounds.

CCCCCCCCCCCCCCCCCCOCCOP(=O)(O)OC[C@H]1O[C@@](C#N)(c2ccc3c(N)ncnn23)[C@H](O)[C@@H]1O :: > 100 µM
CCCCCCCCCCCCCCCCOCCCOP(=O)(O)OC[C@H]1O[C@@](C#N)(c2ccc3c(N)ncnn23)[C@H](O)[C@@H]1O :: > 100 µM

Checklist item: CC50 tested on Huh7.5 cells, entry CCCCCCCCCCCCCCCCCCOC[C@H](COP(=O)(O)OC[C@H]1O[C@@](C#N)(c2ccc3c(N)ncnn23)[C@H](O)[C@@H]1O)OCc1ccccc1 [Compound 15d] , value?
62.9 µM

* * *

System: Calu 3
assay_comment: Antiviral evaluation of cyanobenzyl analogs, Calu 3
Format: cell-based
measurement_parameters: Calu 3; read-out: EC50
property_name: EC50
Mention the unit after the number when you answer.

CCCCCCCCCCCCCCCCCCOC[C@H](COP(=O)(O)OC[C@H]1O[C@@](C#N)(c2ccc3c(N)ncnn23)[C@H](O)[C@@H]1O)OCc1cccc(C#N)c1 [OD(3-CN-Bn)G-P-RVn] :: 34 nM

Please look at the following compound next.
What EC50 value was documented for this compound, CCCCCCCCCCCCCCCCCCOC[C@H](COP(=O)(O)OC[C@H]1O[C@@](C#N)(c2ccc3c(N)ncnn23)[C@@H](O)C1O)OCc1ccc(C#N)cc1 (some centres unmarked) [OD(4-CN-Bn)G-P-RVn] ?
43 nM

* * *

Assignment: determine reported CC50 for the given compounds.
Tested on: TMPRSS2-Vero cells
assay_comment: Cytotoxicity in TMPRSS2-Vero cells, nuclei count (Example 6)
Type: cell-based
measurement_parameters: TMPRSS2-Vero cells; read-out: CC50

Recorded results for 2 compounds are shown here.
CCCCCCCCCCCCCCCCOC[C@H](COP(=O)(O)OC[C@H]1O[C@@](C#N)(c2ccc3c(N)ncnn23)[C@H](O)[C@@H]1O)OCc1ccccc1 [Compound 15b] :: > 20 µM
CCCCCCCCCCCCCCOC[C@H](COP(=O)(O)OC[C@H]1O[C@@](C#N)(c2ccc3c(N)ncnn23)[C@H](O)[C@@H]1O)OCc1ccccc1 [Compound 15a] :: > 20 µM

What CC50 value was documented for this compound, CCCCCCCCCCCCCCCCOC[C@H](COP(=O)(O)OC[C@H]1O[C@@](C#N)(c2ccc3c(N)ncnn23)[C@H](O)[C@@H]1O)OCc1ccc(OC)c(F)c1 [Compound 15c] ?
> 20 µM

* * *

Tested on: SARS-CoV-2
assay_comment: SARS-CoV-2 infection assay in Huh7.5 cells, nucleocapsid immunofluorescence (Example 6)
Assay type: cell-based
measurement_parameters: MOI 0.1, 48 hours
Define the label as 1 when EC90 is strictly less than 0.5 µM and as 0 in all remaining cases.

Recorded results for 2 compounds are shown here.
CCCCCCCC/C=C\CCCCCCCCOC[C@H](COP(=O)(O)OC[C@H]1O[C@@](C#N)(c2ccc3c(N)ncnn23)[C@H](O)[C@@H]1O)OCc1ccccc1 [Compound 15l] :: 1
CCCCCCCCCCCCCCCCCCCCOP(=O)(O)OC[C@H]1O[C@](C#N)(c2ccc3c(N)ncnn23)[C@H](O)[C@@H]1O :: 0

Given CCCCCCCCCCCCCCCCOC[C@H](COP(=O)(O)OC[C@H]1O[C@@](C#N)(c2ccc3c(N)ncnn23)[C@H](O)[C@@H]1O)OCc1ccccc1 [Compound 15b] , is recorded EC90 strictly lower than 0.5 µM?
1

Given CCCCCCCCCCCCCCCCCCOC[C@H](COP(=O)(O)OC[C@H]1O[C@@](C#N)(c2ccc3c(N)ncnn23)[C@H](O)[C@@H]1O)OCc1ccccc1 [Compound 15d] , is recorded EC90 strictly lower than 0.5 µM?
1

Given CCCCCCCCCCCCCCCCCCOC[C@H](COP(=O)(O)OC[C@H]1O[C@@](C#N)(c2ccc3c(N)ncnn23)[C@H](O)[C@@H]1O)OCCCCCCCC [Compound 15f] , is recorded EC90 strictly lower than 0.5 µM?
0

* * *

System: HIV-1
measurement_parameters: variation of the diester substituent of ODE-TFV
Assignment: determine reported Selectivity Index for the given molecules.
Numbers only.

Recorded results for 4 molecules are shown here.
CCCCCCCCCCCCCCCCCCOCCOP(=O)(CO[C@H](C)Cn1cnc2c(N)ncnc21)Oc1ccccc1 (some centres unmarked) :: 1640
CCCCCCCCCCCCCCCCCCOCCOP(=O)(CO[C@H](C)Cn1cnc2c(N)ncnc21)OCC (some centres unmarked) :: 95
CCCCCCCCCCCCCCCCCCOCCOP(=O)(CO[C@H](C)Cn1cnc2c(N)ncnc21)OC (some centres unmarked) :: 677
CCCCCCCCCCCCCCCCCCOCCOP(=O)(CO[C@H](C)Cn1cnc2c(N)ncnc21)OCc1cccc(C)c1 (some centres unmarked) :: 1210

Please look at the following molecule next.
What Selectivity Index value was documented for this molecule, CCCCCCCCCCCCCCCCCCOCCOP(=O)(CO[C@H](C)Cn1cnc2c(N)ncnc21)OCc1ccc(C)cc1 (some centres unmarked) ?
1620

* * *

assay_comment: in vitro
measurement_parameters: human
property_name: CC50 at 48.5 h

What CC50 at 48.5 h value was documented for this compound, N#C[C@@]1(c2ccc3c(N)ncnn23)O[C@H](CO)[C@@H](O)[C@H]1O [RVn, reference compound] ?
> 100 µM

* * *

Tested on: HIV-1
measurement_parameters: variation of the diester substituent of ODE-TFV, HIV infected human PBMCs
Assignment: determine reported EC50 for the given compounds.
Mention the unit after the number when you answer.

CCCCCCCCCCCCCCCCCCOCCOP(=O)(CO[C@H](C)Cn1cnc2c(N)ncnc21)OC (some centres unmarked) [ODE-Me-TFV] :: 5.2 nM
CCCCCCCCCCCCCCCCCCOCCOP(=O)(CO[C@H](C)Cn1cnc2c(N)ncnc21)OCc1cccc(C)c1 (some centres unmarked) [3-methyl benzyl] :: 3.2 nM
CCCCCCCCCCCCCCCCCCOCCOP(=O)(CO[C@H](C)Cn1cnc2c(N)ncnc21)OCC (some centres unmarked) [ODE-Et-TFV] :: 57 nM
CCCCCCCCCCCCCCCCCCOCCOP(=O)(CO[C@H](C)Cn1cnc2c(N)ncnc21)OCc1ccc(C)cc1 (some centres unmarked) [ODE-4MeBN-TFV] :: 2.1 nM

What EC50 value was documented for this compound, CCCCCCCCCCCCCCCCCCOCCOP(=O)(CO[C@H](C)Cn1cnc2c(N)ncnc21)Oc1ccccc1 (some centres unmarked) [ODE-Ph-TFV] ?
2.4 nM
